IC50 values by entry
System: Dmel\Orco (Drosophila melanogaster, UniProt Q9VNB5)
Sequence (Q9VNB5 whole entry): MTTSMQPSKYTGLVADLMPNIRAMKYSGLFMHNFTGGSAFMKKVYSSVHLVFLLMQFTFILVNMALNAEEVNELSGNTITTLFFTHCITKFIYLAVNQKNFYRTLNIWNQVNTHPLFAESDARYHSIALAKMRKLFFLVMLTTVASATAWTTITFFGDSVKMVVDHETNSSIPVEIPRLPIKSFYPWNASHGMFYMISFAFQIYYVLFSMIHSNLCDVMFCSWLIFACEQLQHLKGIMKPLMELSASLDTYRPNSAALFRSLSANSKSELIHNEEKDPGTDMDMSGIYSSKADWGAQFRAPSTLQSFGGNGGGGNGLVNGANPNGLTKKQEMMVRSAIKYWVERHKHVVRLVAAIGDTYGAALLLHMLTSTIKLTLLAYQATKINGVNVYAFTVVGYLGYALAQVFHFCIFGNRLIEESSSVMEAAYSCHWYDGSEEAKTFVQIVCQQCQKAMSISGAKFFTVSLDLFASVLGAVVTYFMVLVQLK
Experiment: Inhibition of OLC12 activation of Dmel\Orco in Xenopus oocytes
Condition notes: activated by 30 µM OLC12 (EC39)
Reply numerically in µM, unit not repeated.

Answered cases to consult:
[
  {
    "Molecule": "CCCCc1ccc(NC(=O)CSc2nnc(-c3ccccn3)n2CC)cc1",
    "Endpoint label": "IC50",
    "Reading": 15
  },
  {
    "Molecule": "CCn1c(SCC(=O)Nc2ccc(N(C)C)cc2)nnc1-c1ccncc1",
    "Endpoint label": "IC50",
    "Reading": 25
  },
  {
    "Molecule": "CCCCc1ccc(NC(=O)c2cccs2)cc1",
    "Endpoint label": "IC50",
    "Reading": 52
  }
]

Sample CCCCc1ccc(NC(=O)CSc2nnc(-c3cccnc3)n2CC)cc1 ; IC50 observed: 69

So, CCc1ccc(NC(=O)c2cccs2)cc1 ? Its IC50 was 57

# compound CCc1ccc(NC(=O)CSc2nnc(-c3ccccn3)n2CC)cc1 ; its IC50 = 23
